The measurements presented in this section are drawn from patent US20120178701A1.

Biological target: T1, human recombinant melanocortin-4 receptor (human, UniProt P32245 1-332)
T1 construct: whole, on cells; cAMP assays used the whole cells; also called hMC4-R; MC4-R
T1 sequence (P32245 whole entry): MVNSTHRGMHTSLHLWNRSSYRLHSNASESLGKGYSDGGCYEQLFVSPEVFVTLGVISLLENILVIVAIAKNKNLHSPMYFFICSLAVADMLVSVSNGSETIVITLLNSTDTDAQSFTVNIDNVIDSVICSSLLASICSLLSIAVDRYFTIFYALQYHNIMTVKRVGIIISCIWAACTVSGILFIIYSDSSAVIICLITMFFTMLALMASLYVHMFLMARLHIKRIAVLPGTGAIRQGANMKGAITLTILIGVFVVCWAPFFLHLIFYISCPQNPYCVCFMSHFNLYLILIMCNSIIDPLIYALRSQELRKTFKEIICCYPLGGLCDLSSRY
Experiment: competitive inhibition of Eu-NDP-α-MSH (TRF), hMC4-R HEK-293 membranes
Protocol: After incubation for 90 minutes at 37° C., the reaction was stopped by filtration over AcroWell 96-well filter plates (Pall Life Sciences). The filter plates were washed 4 times with 200 μL of ice-cold phosphate-buffered saline. […] The plates were incubated on a shaker for 15 minutes and read at 340 nm excitation and 615 nm emission wavelengths. […] Ki values were determined by curve-fitting with Graph-Pad Prism® software using a one-site fixed-slope competition binding model. […]
pKi: −log10 of the molar value. Bridge positions count the residues as written; N and C are the ends. Square brackets hold non-standard residues; d marks the D form. Orn = NCCC[C@H](N)C(=O)O
Parameter threshold = 7. Response is Met when pKi meets or exceeds it, else Not met.

For orientation, consider the following solved cases.
>>> assignedlabel("RDHFKWK (HELM PEPTIDE1{[ac].R.D.H.[dF].K.W.K.[am]}$PEPTIDE1,PEPTIDE1,3:R3-8:R3$$$V2.0; SMILES CC(=O)N[C@@H](CCCNC(=N)N)C(=O)N[C@H]1CC(=O)NCCCC[C@@H](C(N)=O)NC(=O)[C@H](Cc2c[nH]c3ccccc23)NC(=O)[C@H](CCCCN)NC(=O)[C@@H](Cc2ccccc2)NC(=O)[C@H](Cc2c[nH]cn2)NC1=O, also called peptide No. 6) [Ac-Arg-cyclo(Asp-His-D-Phe-Lys-Trp-Lys)-NH2]")
"Not met"
>>> assignedlabel("RDNFRWK (HELM PEPTIDE1{[ac].R.D.N.[dF].R.W.K.[am]}$PEPTIDE1,PEPTIDE1,3:R3-8:R3$$$V2.0; SMILES CC(=O)N[C@@H](CCCNC(=N)N)C(=O)N[C@H]1CC(=O)NCCCC[C@@H](C(N)=O)NC(=O)[C@H](Cc2c[nH]c3ccccc23)NC(=O)[C@H](CCCNC(=N)N)NC(=O)[C@@H](Cc2ccccc2)NC(=O)[C@H](CC(N)=O)NC1=O, also called peptide No. 29) [Ac-Arg-cyclo(Asp-Asn-D-Phe-Arg-Trp-Lys)-NH2]")
"Met"
>>> assignedlabel("RXAFRWE (HELM PEPTIDE1{[ac].R.[Orn].A.[dF].R.W.E.[am]}$PEPTIDE1,PEPTIDE1,3:R3-8:R3$$$V2.0; SMILES CC(=O)N[C@@H](CCCNC(=N)N)C(=O)N[C@H]1CCCNC(=O)CC[C@@H](C(N)=O)NC(=O)[C@H](Cc2c[nH]c3ccccc23)NC(=O)[C@H](CCCNC(=N)N)NC(=O)[C@@H](Cc2ccccc2)NC(=O)[C@H](C)NC1=O, also called peptide No. 120) [Ac-Arg-cyclo(Orn-Ala-D-Phe-Arg-Trp-Glu)-NH2]")
"Met"
>>> assignedlabel("Ac-[dR][Orn]H[dF]RWE-NH2 (lactam 2-7, also called peptide No. 98) [Ac-D-Arg-cyclo(Orn-His-D-Phe-Arg-Trp-Glu)-NH2]")
"Met"

Next binder, please.
// inclusive: pKi at least 7? input: Ac-REH[dF]RW[Orn]-NHEt (lactam 2-7, also called peptide No. 109) [Ac-Arg-cyclo(Glu-His-D-Phe-Arg-Trp-Orn)-NH-Et]
Met
